All figures here come from patent US20240092758A1.

biological target: JAK1 (Homo sapiens (Human), UniProt P23458); assay: Biochemical JAK kinase assay (LanthaScreen), JAK1; conditions: read-out: JAK1 pKi (converted)
Sequence (P23458 whole entry): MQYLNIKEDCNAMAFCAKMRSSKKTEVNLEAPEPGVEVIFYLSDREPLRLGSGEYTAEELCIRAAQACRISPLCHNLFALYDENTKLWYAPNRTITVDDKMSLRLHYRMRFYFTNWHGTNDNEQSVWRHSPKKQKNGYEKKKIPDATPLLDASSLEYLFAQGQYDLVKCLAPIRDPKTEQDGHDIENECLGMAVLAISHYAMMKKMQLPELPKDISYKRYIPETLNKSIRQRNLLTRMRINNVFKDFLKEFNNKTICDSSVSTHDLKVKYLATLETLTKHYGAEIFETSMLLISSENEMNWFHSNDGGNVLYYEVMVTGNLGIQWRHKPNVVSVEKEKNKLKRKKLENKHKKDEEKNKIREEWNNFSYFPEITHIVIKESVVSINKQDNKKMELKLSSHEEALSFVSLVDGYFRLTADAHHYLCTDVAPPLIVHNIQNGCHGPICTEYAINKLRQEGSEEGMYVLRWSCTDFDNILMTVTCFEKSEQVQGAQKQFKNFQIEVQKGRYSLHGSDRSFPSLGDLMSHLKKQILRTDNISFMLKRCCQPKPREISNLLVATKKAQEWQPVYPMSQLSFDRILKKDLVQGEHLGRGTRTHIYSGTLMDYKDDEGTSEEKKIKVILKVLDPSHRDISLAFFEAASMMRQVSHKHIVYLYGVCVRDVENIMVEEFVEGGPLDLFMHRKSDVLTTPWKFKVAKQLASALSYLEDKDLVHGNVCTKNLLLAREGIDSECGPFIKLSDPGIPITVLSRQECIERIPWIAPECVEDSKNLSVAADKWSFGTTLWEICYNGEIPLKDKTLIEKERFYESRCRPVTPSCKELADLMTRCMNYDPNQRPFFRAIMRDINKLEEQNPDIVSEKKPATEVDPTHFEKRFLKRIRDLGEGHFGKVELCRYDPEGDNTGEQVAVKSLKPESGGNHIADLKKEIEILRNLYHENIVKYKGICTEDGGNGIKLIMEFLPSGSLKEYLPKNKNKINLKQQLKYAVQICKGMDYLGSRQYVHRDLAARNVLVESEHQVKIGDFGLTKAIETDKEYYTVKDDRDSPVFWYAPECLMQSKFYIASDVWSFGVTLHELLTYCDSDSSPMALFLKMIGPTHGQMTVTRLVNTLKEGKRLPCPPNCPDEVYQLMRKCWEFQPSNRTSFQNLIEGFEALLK
Recorded metric: Ki

Would you please look over these solved cases?
CCc1cc(O)ccc1-c1ccc2c(-c3nc(C4=C[C@@H](C)NCC4)c[nH]3)n[nH]c2c1F = 0.1 to 1 nM
CCc1cc(O)ccc1-c1ccc2c(-c3nc(C4=CCN([C@H]5CC[C@@](O)(C(F)(F)F)CC5)C4)c[nH]3)n[nH]c2c1F = 1 to 10 nM
CCc1cc(O)ccc1-c1ccc2c(-c3nc(C4=CCN(CC(C)C)CC4)c[nH]3)n[nH]c2c1F = 0.1 to 1 nM

The compound listed as CCc1cc(O)ccc1-c1ccc2c(-c3nc(C4=CCN(C[C@H]5COCCN5)CC4)c[nH]3)n[nH]c2c1F has a reported Ki of 0.1 to 1 nM

###

biological target: TYK2 (Homo sapiens (Human), UniProt P29597); assay: Biochemical JAK kinase assay (LanthaScreen), Tyk2; details: read-out: Tyk2 pKi (converted)
Sequence (P29597 whole entry): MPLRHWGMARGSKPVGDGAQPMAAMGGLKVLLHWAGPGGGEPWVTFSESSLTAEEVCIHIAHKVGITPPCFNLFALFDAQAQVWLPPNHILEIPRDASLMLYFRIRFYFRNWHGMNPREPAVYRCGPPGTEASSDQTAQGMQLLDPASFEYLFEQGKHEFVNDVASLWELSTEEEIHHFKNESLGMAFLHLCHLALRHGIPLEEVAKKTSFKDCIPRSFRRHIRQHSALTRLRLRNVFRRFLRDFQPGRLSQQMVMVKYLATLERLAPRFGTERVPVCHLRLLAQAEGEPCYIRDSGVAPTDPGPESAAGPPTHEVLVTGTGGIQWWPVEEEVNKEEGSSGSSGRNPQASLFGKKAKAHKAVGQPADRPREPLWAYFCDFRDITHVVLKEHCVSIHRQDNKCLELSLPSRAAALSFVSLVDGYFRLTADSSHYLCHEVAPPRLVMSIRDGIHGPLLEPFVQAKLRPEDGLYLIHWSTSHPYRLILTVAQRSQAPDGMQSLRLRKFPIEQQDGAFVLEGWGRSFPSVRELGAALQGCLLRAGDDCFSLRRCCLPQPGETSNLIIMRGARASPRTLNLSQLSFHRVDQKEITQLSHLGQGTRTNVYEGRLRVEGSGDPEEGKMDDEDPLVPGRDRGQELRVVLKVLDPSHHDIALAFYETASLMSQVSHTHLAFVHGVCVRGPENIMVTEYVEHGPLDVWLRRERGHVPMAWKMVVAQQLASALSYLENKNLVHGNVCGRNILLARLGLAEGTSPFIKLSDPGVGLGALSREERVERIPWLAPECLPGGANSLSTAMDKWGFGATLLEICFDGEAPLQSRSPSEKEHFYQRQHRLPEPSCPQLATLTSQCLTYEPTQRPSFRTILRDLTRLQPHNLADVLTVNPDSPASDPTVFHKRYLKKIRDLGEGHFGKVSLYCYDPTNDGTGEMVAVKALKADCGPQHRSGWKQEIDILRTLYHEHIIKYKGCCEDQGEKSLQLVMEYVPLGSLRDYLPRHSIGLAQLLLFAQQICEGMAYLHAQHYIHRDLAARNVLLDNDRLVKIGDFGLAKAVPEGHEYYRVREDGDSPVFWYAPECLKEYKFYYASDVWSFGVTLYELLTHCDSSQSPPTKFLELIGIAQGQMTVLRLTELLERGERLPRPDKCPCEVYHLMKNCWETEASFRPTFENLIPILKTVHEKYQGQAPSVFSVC
Recorded metric: Ki

CCc1cc(O)ccc1-c1ccc2c(-c3nc(C4=CCN(C5CCNC5)C4)c[nH]3)n[nH]c2c1F (centres unmarked) = 1 to 10 nM

Summary for this compound, CCc1cc(O)ccc1-c1ccc2c(-c3nc(C4=CCN(C(=O)[C@@H](N)C(C)(C)O)CC4)c[nH]3)n[nH]c2c1 : Ki is 1 to 10 nM

Entry CCc1cc(O)ccc1-c1ccc2c(-c3nc(C4=CCN(CCN5CCOCC5)CC4)c[nH]3)n[nH]c2c1F ; Ki = 1 to 10 nM

For reference, reported Ki for CCc1cc(O)ccc1-c1ccc2c(-c3nc(C4=C[C@H](C)NCC4)c[nH]3)n[nH]c2c1F stands at 0.1 to 1 nM

Entry CCc1cc(O)ccc1-c1ccc2c(-c3nc(C4=CCN(C(=O)[C@@H](N)C(C)(C)O)C4)c[nH]3)n[nH]c2c1F ; Ki = 1 to 10 nM

Reported Ki of CCc1cc(O)ccc1-c1ccc2c(-c3nc(C4=CCN(C5CCCN(C)C5)CC4)c[nH]3)n[nH]c2c1F (centres unmarked) : 1 to 10 nM

The reported Ki of the compound CCc1cc(O)ccc1-c1ccc2c(-c3nc(C4=CCNC4)c[nH]3)n[nH]c2c1 was 0.1 to 1 nM

// field: Ki; key: CCc1cc(O)ccc1-c1ccc2c(-c3nc(C4=CCCN(C5CCOCC5)C4)c[nH]3)n[nH]c2c1F ; value = 1 to 10 nM

Measured Ki of CCc1cc(O)ccc1-c1ccc2c(-c3nc(C4=CC[C@@H](C)NC4)c[nH]3)n[nH]c2c1F : 1 to 10 nM

Measured Ki, CCOC[C@H]1C=C(c2c[nH]c(-c3n[nH]c4c(F)c(-c5ccc(O)cc5CC)ccc34)n2)CN1 : 1 to 10 nM

For record CCc1cc(O)ccc1-c1ccc2c(-c3nc(C4=CCN(C(C)C)CC4)c[nH]3)n[nH]c2c1F the listed Ki is 1 to 10 nM

Ki reading for CCc1cc(O)ccc1-c1ccc2c(-c3nc(C4=CCN(C5CN(C)C5)CC4)c[nH]3)n[nH]c2c1F : 1 to 10 nM

Entry CCc1cc(O)ccc1-c1ccc2c(-c3nc(C4=CCN(CCN5CCOCC5)C4)c[nH]3)n[nH]c2c1F ; Ki = 1 to 10 nM

// sample CCc1cc(O)ccc1-c1ccc2c(-c3nc(C4=CC(CC)NC4)c[nH]3)n[nH]c2c1F (centres unmarked) , its Ki was 1 to 10 nM

Measured Ki of CCc1cc(O)ccc1-c1ccc2c(-c3nc(C4=C[C@H](COC)NC4)c[nH]3)n[nH]c2c1F : 10 to 100 nM

Ki reported for this compound CCc1cc(O)ccc1-c1ccc2c(-c3nc(C4=CCN(C5CCN(C)C5)CC4)c[nH]3)n[nH]c2c1F (centres unmarked) : 1 to 10 nM

Per the records, this compound ( CCc1cc(O)ccc1-c1ccc2c(-c3nc(C4=CCN(C5CCN(C)CC5)CC4)c[nH]3)n[nH]c2c1F ) has Ki equal to 1 to 10 nM

Record CCc1cc(O)ccc1-c1ccc2c(-c3nc(C4=C[C@H](CO)NC4)c[nH]3)n[nH]c2c1F . Reported Ki: 1 to 10 nM

Record summary for CCc1cc(O)ccc1-c1ccc2c(-c3nc(C4=CCN(C[C@@H]5COCCN5)CC4)c[nH]3)n[nH]c2c1F : reported Ki = 1 to 10 nM

Query CCc1cc(O)ccc1-c1ccc2c(-c3nc(C4=CCCN(CCCO)C4)c[nH]3)n[nH]c2c1F yields Ki of 1 to 10 nM
